Source: patent US20080306243A1

- assayed_system: T1, HLA-A2402 molecule, which is a product of the HLA-A*2402 gene (human)
- T1 construct: MHC class I molecule on C1R-A24 cells, emptied by acid and reassociated with added β2m and the test peptide; also called HLA-A24 molecule; human HLA-A2402 molecule
- method_notes: flow cytometry; reassociation of peptide, added β2m and HLA-A2402 on acid-stripped C1R-A24 cells, stained with mAb 17A12
measurement_name: -log Kd

binder="ILSRIVGGW (Synthetic 9-mer peptide of PSA (GenBank M26663)) [SEQ ID NO 6]" measurement_name="-log Kd" result="7.21 -log Kd"
binder="ILLGRHSLF (Synthetic 9-mer peptide of PSA (GenBank M26663)) [SEQ ID NO 3]" measurement_name="-log Kd" result="7.47 -log Kd"
binder="QVFQVSHSF (Synthetic 9-mer peptide of PSA (GenBank M26663)) [SEQ ID NO 5]" measurement_name="-log Kd" result="7.32 -log Kd"
binder="VHPQKVTKF (Synthetic 9-mer peptide of PSA (GenBank M26663)) [SEQ ID NO 7]" measurement_name="-log Kd" result="6.65 -log Kd"
binder="GVLQGITSW (Synthetic 9-mer peptide of PSA (GenBank M26663)) [SEQ ID NO 8]" measurement_name="-log Kd" result="5.38 -log Kd"

Task item: Consider the binder VLVHPQWVL (Synthetic 9-mer peptide of PSA (GenBank M26663)) [SEQ ID NO 9] and give its measured -log Kd.
Reply: 6.34 -log Kd
